From: patent US20230002757A1

- SYSTEM TESTED: KLH (Keyhole Limpet Hemocyanin) (keyhole limpet)
- ASSAY PROTOCOL: ELISA on KLH
# EC50 listing for each entry below
Number only, in nM; omit the unit.

Take a look at these entries with their results.
{"columns": ["BINDER", "RESULT UNIT", "EC50"],
 "data": [
  ["NGS602-OLIGO_35 (VHH) VHH: QVSLVESGGGLVQAGGSLRLSCAASGRTFRRSAMGWFRRPPGKEREFVAAITSSGGSIYDPDIAKDRFTISRDNSKTSVYLQMNNLKPEDTAVYYCSLKTTYSGGPYDYTKGPEYDYWGQGTQVTVSS", "nM", 0.291],
  ["NGS602-OLIGO_169 (VHH) VHH: RVQLVESGGGLVQAGGALRLSCVGSGFTFRDTAMAWFRQSPGKEREFVAGFSILSRYADSVKGRFTISRDNDKNTVYLQMNSLKPEDTAVYYCAAGDGTIASVLTTSGVNFWGQGTQVTVSS", "nM", 0.213],
  ["NGS602-OLIGO_31 (VHH) VHH: QVQLVESGGGLVQAGDSLRLSCTASGTTFDRYHMGWFRQAPGMERHVVAHISWSGANTYVADSMKGRFTISRDNAKNTAYLQINNLKFEDTALYYCAAGSYLAVPGSRWDYWGQGTQVTVSS", "nM", 1.01]
]}

Field: next binder
Requested read-out: EC50. Entry: NGS602-OLIGO_30 (VHH) VHH: QVQLVESGGGTVQAGGSLRLSCAASGLTFGSYAMEWYRQAPGKERELVATISSGGNTHYLASVKGRFTISRDNDKNTLYLQMNSLKPEDTAVYYCAAKYGWTGIWYAPSDYVHLGPGTQVTVSS
0.067
